biological target: human cloned 5-HT6 receptors (Homo sapiens); construct: expressed in transfected cells; host or cells: Hela cells; assay: 5-HT6 binding affinity, [3H]-LSD displacement on membranes of Hela cells expressing the receptor; settings: [3H]-LSD 3.0 nM, membranes of Hela cells expressing human cloned 5-HT6 receptors, 120 min at room temperature; read-out: 5-HT6 Binding Ki
MEASURED_ENDPOINT: Ki
Entry format: amount then unit.

                           structure_smiles                         target_under_test  reported_measurement
0  CN(C)CCc1cn(S(=O)(=O)c2c(Cl)nc3ccccn23)c2ccccc12  human cloned 5-HT6 receptors (Homo sapiens)                 10 nM

Entry under test: NCCCc1cn(S(=O)(=O)c2c(Cl)nc3sccn23)c2ccc(F)cc12 . Its Ki was 48 nM

====

target: human cloned 5-HT6 receptors (Homo sapiens, UniProt P50406); construct: expressed in transfected cells; host or cells: Hela cells; test: 5-HT6 binding affinity, [3H]-LSD displacement on membranes of Hela cells expressing the receptor
Sequence (P50406 whole entry): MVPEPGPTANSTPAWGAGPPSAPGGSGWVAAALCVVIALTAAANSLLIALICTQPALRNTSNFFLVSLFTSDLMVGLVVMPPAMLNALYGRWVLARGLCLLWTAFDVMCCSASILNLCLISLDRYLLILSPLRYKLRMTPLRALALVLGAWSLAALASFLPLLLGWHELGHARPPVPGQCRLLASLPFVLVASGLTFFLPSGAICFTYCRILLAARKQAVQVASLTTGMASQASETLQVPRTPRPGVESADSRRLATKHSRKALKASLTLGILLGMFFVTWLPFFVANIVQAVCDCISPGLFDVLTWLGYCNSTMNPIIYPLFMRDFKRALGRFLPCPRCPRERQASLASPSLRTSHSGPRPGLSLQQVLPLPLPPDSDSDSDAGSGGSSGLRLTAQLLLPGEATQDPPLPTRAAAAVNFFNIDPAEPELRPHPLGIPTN
// reported pKi per item
Recall that pKi is obtained by taking minus log10 of the concentration measured in molar.

Sample records with pKi:
                                   molecule  reported_measurement
0  NCCc1cn(S(=O)(=O)c2c(Cl)nc3sc(Cl)cn23)c2ccccc12 [Example 18]                  8.10
1  NCCc1cn(S(=O)(=O)c2c(Cl)nc3sccn23)c2ccc(F)cc12 [Example 38]                  8.05
2  NCCc1cn(S(=O)(=O)c2cnc3sccn23)c2ccccc12 [Example 40]                  8.92
3  CN(C)CCc1cn(S(=O)(=O)c2c(Cl)nc3sccn23)c2ccccc12 [Example 4]                  9.00
4  O=C(O)C1CCCN1CCc1cn(S(=O)(=O)c2c(Cl)nc3sccn23)c2ccccc12 (stereo not drawn) [Example 11]                  7.52
5  O=S(=O)(c1c(Cl)nc2sccn12)n1cc(CCNCCc2ccccc2)c2ccccc21 [Example 10]                  7.39
6  CNCCc1cn(S(=O)(=O)c2c(Cl)nc3ccccn23)c2ccccc12 [Example 20]                  7.96
7  CNCCc1cn(S(=O)(=O)c2c(Cl)nc3sc(Cl)cn23)c2ccccc12 [Example 21]                  7.92

Entry under test: CN1CCN(CCc2cn(S(=O)(=O)c3c(Cl)nc4sccn34)c3ccccc23)CC1 [Example 7] . Its pKi was 8.15

Entry under test: NCCc1cn(S(=O)(=O)c2c(Cl)nc3sccn23)c2ccc(Br)cc12 [Example 32] . Its pKi was 7.13

Entry under test: O=S(=O)(c1c(Cl)nc2sccn12)n1cc(CCNCc2ccccc2)c2ccccc21 [Example 5] . Its pKi was 8.40

====

// reported Ki per item
molecular target: human cloned 5-HT6 receptors (Homo sapiens, UniProt P50406); construct: expressed in transfected cells; host or cells: Hela cells; assay: 5-HT6 binding affinity, [3H]-LSD displacement on membranes of Hela cells expressing the receptor
Counter-ions that a name gives are not always drawn.
Express the result in nM but write the number alone.

                                   molecule  result_unit  reported_measurement
0  C[C@H](N)Cc1cn(S(=O)(=O)c2c(Cl)nc3sccn23)c2ccccc12 [Example 15, Hydrochloride]           nM                     6

Entry under test: NCCc1cn(S(=O)(=O)c2c(Cl)nc3sccn23)c2ccc(O)cc12 . Its Ki was 4

Entry under test: CNCCc1cn(S(=O)(=O)c2c(Cl)nc3sccn23)c2ccccc12 . Its Ki was 19

Entry under test: Cc1ccc2c(CCN)cn(S(=O)(=O)c3c(Cl)nc4sccn34)c2c1 . Its Ki was 6
